Would you kindly list Enzyme Activity Endpoint Assay (purified): IgG for each of these proteins?
Assayed target: pooled human IgG

Ask: # query: Enzyme Activity Endpoint Assay (purified): IgG of entry PRT-630 (protein) MQITSVWTKGVTPLTPEQFRYNNEDVIHAPYLAHQGWYDITKAFDGKDNLLCGAATAGNMLHWWFDQNKEEIENYLKKYPEKQKIIFNNQELFDLKAAIDTKDSQTNSQLFNYFRDKAFPNLSARQLGVMPDLVLDMFINGYYLNVFKTQSTDVNRPYQDKDKRGGIFDAVFTRGDQTTLLTARHDLKNKGLNDISTIIKQELTEGRALALSHTYANVSISHVINLWGADFNAEGNLEAIYVTDSDANASIGMKKYFVGINAHGHVAISAKKIEGENIGAQVLGLFTLSSGQEIWEQLSLEHHHHHH
Result: 0 ng/µL

Ask: Entry PRT-229 (protein) MEVVEVWPYGQNPNGKTEILSQTEDSESLQRLRDIEDFQAEKKKQNVVYTKWLDGVDVKDHDFRKIVDGNIAYYATPLLNGRGFYDINKDFNRDSDKCAAAVAANMFHYWLDINRDNVDRFLRQNPEKHGIIELPDGQLKLSDFLNTYESDHGYRDKSKLFDFISNNFNGPVWTDKLLDNYINGYAYNYKYGRTIEDPTKNTSKINFFKEVFNEKILTNNHSIRNQNEFSVLLSEALYTGKAIGLSYGPAGLRHSLGHIISVWGADLDADGNVVAIYVTDSDDKKLTIGDERVGLKRYKISTDDENRLRLTAYEETHNTGGQIRGLWTLDTGKYAWADYFDKTEQTGTDQAEQLEHHHHHH : reported Enzyme Activity Endpoint Assay (purified): IgG = ?
Result: 1270 ng/µL
